FYI, the data here is from patent US20140287419A1.

Test: Dicamba decarboxylation activity of computationally designed protein variants
Details: parent SEQ ID NO:1 or SEQ ID NO:41 listed as 100
For each of the molecules below, state its Percent Activity Improvement Over Parent (%).
// units = %; emit number, no label

Quick one: Percent Activity Improvement Over Parent (%) for 115 (protein, Dicamba decarboxylase variant clone DC.4.161) MAQGKVALEEHFAIPDTLTTYTTSGDYEKELKHRLLDIQDTRLKLMDAHGIETMILSLNAPGVQAIPDRRKAIEIARRANDVLAEECAKRPDRFLAFAALPLQDPDAATEELQRCVNDLGFVGALVNGFSQEGDGQTPLYYDLPQYRPFWGEVEKLDVPFYLHPRNPLPQDSRIYDGHPWLLGPTWAFAQETAVHALRLMASGLFDEHPRLNIILGHMGEGLPYMMWRIDHRNAWVKTPPRYPAKRRFMDYFNENFHITTSGNFRTQTLIDAILEIGADRILFSTDWPFENIDHASDWFNATSIAEADRVKIGRTNARRLFKLDGA ? 202

Please look up its Percent Activity Improvement Over Parent (%): 109 (protein, Dicamba decarboxylase variant clone DC.4.032) MAQGKVALEEHFAIPETLQDSAGFVPGDYWKELQHRLLDIQDTRLKLMDAHGIETMILSLNAPAVQAIPDRRKAIEIARRANDVLAEECAKRPDRFLAFAALPLQDPDAATEELQRCVNDLGFVGALVNGFSQEGDGQTPLYYDLPQYRPFWGEVEKLDVPFYLHPRNPLPQDSRIYDGHPWLLGPTWAFAQETAVHALRLMASGLFDEHPRLNIILGHMGEGLPYMMWRIDHRVAWVKLPPRYPAKRRFMDYFNENFHITTSGNFRTQTLIDAILEIGADRILFSTDWPFENIDHASDWFNATSIAEADRVKIGRTNARRLFKLDGA 234
